# system.under.test: Beta-lactamase TEM (Enterobacter cloacae) (UniProt Q6W9J1)
# Sequence (Q6W9J1 as listed by the source): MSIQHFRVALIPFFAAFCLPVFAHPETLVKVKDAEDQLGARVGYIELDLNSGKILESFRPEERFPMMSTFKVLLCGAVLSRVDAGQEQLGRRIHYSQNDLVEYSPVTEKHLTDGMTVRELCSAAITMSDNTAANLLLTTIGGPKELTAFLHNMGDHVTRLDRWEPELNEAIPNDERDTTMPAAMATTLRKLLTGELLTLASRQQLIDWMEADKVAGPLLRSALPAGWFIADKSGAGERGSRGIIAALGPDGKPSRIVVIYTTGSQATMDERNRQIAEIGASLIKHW
# measurement.protocol: Ratio of Kcat to Km of Enterobacter cloacae beta-lactamase TEM-1

item.smiles | Ratio / s⁻¹ M⁻¹
CC(=O)OCC1=C(C(=O)O)N2C(=O)[C@@H](N(O)C=O)[C@H]2SC1 | 25
CC(=O)OCC1=C(C(=O)O)N2C(=O)[C@@H](N(O)C(=O)Cc3ccccc3)[C@H]2SC1 | 2620
CC(=O)OCC1=C(C(=O)O)N2C(=O)/C(=N/O)[C@H]2SC1 | 158
CC(=O)OCC1=C(C(=O)O)N2C(=O)[C@@H](NO)[C@H]2SC1 | 2620
CC(=O)OCC1=C(C(=O)O)N2C(=O)/C(=N/O)[C@H]2S(=O)(=O)C1 | 1690
CC1=C(C(=O)O)N2C(=O)/C(=N/O)[C@H]2S(=O)(=O)C1 | 40
